- experimental_system: LIGHT (human, UniProt O43557 74-240, limits assumed)
- Sequence (O43557 74-240 limits assumed): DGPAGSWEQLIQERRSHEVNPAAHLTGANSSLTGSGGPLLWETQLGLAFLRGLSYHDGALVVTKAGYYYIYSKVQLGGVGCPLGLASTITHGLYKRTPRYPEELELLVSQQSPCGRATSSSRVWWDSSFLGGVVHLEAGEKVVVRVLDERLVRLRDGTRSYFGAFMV
- protocol_text: phage ELISA
reported_property: binding result

I078D08 (scFv) scFv: QVNLRESGGGLVQPGGSLRLSCAASGFTFSSYWMSWVRQAPGKGLEWVANIKQDGSEKYYVDSVKGRFTISRDNSKNTLYLQMNSLRAEDTAVYYCARDAQSYYDILTGYQSYAFDIWGQGTTVTVSSGGGGSGGGGSGGGGSSELTQDPAVSVALGQTVRITCQGDSLRSYYTNWFQQKPGQAPLLVVYAKNKRPSGIPDRFSGSSSGNTASLTITGAQAEDEADYYCHSRDSSGNHVLFGGGTKLTVLG	no binding
I067B10 (scFv) scFv: QMQLVQSGAEVKKPGASVKVSCKASGYTFTSYYMHWVRQAPGQGLEWMGWINAGNSNTKYSQKFQGRVTITSDTSASTAYMELSGLRSEDTAVYYCARDRGAPNYDILTGYYAPAQGVAFDIWGKGTLATVSSGGGGSGGGGSGGGGSQSVLTQPPSVSAAPGQKVTISCSGSTSNIGNNYVSWYQQHPGKAPKLMIYDVSKRPSGVPDRFSGSKSGNSASLDISGLQSEDEADYYCAAWDDSLSEFLFGTGTKLTVLG	no binding
I065F08 (scFv) scFv: QVQLQQSGAEVKKPGSSVKVSCKASGDTFSSFGISWVRQVPGQGLEWMGAIIPKFDIVTYAEEFKGRVTISADKLTNTAYMEVKSLRSEDTAVYYCTREKSAAGYFDYWGKGTLVTVSSGGGGSGGGGSGGGGSDIVMTQSPSTLSASVGDRVTITCRASQGISSWLAWYQQKPGRAPKVLIYKASTLESGVPSRFSGSGSGTDFTLTISSLQPEDFATYYCQQSYSTPWTFGQGTKLEIKR	no binding
